- Test system: redroot pigweed (Amaranthus retroflexus L.)
- MEASUREMENT_DESCRIPTION: Test Example 1: foliar treatment, growth inhibition rate on 14th day
- Type: in vivo
- TEST_PARAMETERS: active ingredient amount 500 g/ha, 14th day after application
Growth inhibition rate (%) Redroot pigweed values, listed per item
The reply must contain the numeric value and, after it, the unit.

Solved cases below.
>  <SMILES_REPR>
Cc1ccc(Oc2ccc3ccccc3n2)cc1-c1c(O)c(C)nn(C)c1=O

>  <RESULT>
0%

$$$$
>  <SMILES_REPR>
CC(=O)Oc1c(C)nn(C)c(=O)c1-c1cc(Oc2cnc3ccccc3c2)ccc1C

>  <RESULT>
0%

$$$$
>  <SMILES_REPR>
CC(=O)Oc1c(C)nn(C)c(=O)c1-c1cc(Oc2ccc3ccccc3n2)ccc1C

>  <RESULT>
0%

$$$$

Next molecule, please.
For the molecule Cc1ccc(Oc2cnc3ccccc3c2)cc1-c1c(O)c(C)nn(C)c1=O , report Growth inhibition rate (%) Redroot pigweed. 20%
